Hi there, I'd appreciate the recorded Ki for every entry that follows.
measured.target: Sodium-dependent dopamine transporter (Rattus norvegicus, UniProt P23977)
Sequence (P23977 whole entry): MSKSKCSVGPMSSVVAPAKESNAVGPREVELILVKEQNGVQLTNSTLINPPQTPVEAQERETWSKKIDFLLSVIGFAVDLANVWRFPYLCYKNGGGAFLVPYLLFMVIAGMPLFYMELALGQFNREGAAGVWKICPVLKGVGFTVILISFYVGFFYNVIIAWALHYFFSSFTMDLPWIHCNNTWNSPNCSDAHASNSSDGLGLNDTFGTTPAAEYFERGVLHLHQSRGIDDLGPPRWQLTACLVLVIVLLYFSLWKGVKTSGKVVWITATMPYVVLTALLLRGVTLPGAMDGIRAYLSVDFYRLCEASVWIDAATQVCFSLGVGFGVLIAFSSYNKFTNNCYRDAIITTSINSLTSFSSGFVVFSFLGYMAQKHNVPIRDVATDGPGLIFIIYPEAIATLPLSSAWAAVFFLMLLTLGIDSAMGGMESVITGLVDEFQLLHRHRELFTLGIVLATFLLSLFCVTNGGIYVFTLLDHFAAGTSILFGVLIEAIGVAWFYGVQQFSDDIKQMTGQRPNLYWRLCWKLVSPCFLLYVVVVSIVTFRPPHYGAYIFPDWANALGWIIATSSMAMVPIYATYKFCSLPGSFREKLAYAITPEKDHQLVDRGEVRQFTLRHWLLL
test.protocol: Inhibition of [3H]DA uptake at Dopamine transporter into rat nerve endings (synaptosomes)

{"columns": ["smiles.structure", "measured.target", "Ki"],
 "data": [
  ["CN1CC[C@@H](c2ccc(Cl)cc2)[C@H](C(=O)NCCCCCNC(=O)[C@@H]2CN(C)CC[C@H]2c2ccc(Cl)cc2)C1", "Sodium-dependent dopamine transporter (Rattus norvegicus, UniProt P23977)", "1960 nM"],
  ["CN1CC[C@@H](c2ccc(Cl)cc2)[C@H](C(=O)NCc2ccc(CNC(=O)c3ccc(C(F)(F)F)cc3)cc2)C1", "Sodium-dependent dopamine transporter (Rattus norvegicus, UniProt P23977)", "> 4000 nM"],
  ["CN1CC[C@@H](c2ccc(Cl)cc2)[C@H](C(=O)NCc2ccc(CNC(=O)c3cccc(Cl)c3)cc2)C1", "Sodium-dependent dopamine transporter (Rattus norvegicus, UniProt P23977)", "> 4000 nM"],
  ["Cc1ccc(C(=O)NCc2ccc(CNC(=O)[C@@H]3CN(C)CC[C@H]3c3ccc(Cl)cc3)cc2)cc1", "Sodium-dependent dopamine transporter (Rattus norvegicus, UniProt P23977)", "> 7000 nM"]
]}

Take each entry in turn and give its Ki.
1. CN1CC[C@@H](c2ccc(Cl)cc2)[C@H](C(=O)NCc2ccc(CNC(=O)c3ccc(Cl)cc3)cc2)C1
2. CN1CC[C@@H](c2ccc(Cl)cc2)[C@H](C(=O)NCc2ccc(CNC(=O)[C@@H]3CN(C)CC[C@H]3c3ccc(Cl)cc3)cc2)C1
3. CN1CC[C@@H](c2ccc(Cl)cc2)[C@H](C(=O)NCc2ccc(CNC(=O)/C=C/c3ccc(Cl)cc3)cc2)C1

output:
["3710 nM", "2270 nM", "> 2000 nM"]

Take each entry in turn and give its Ki.
1. CN1CC[C@@H](c2ccc(Cl)cc2)[C@H](C(=O)NCc2ccc(CNC(=O)CCc3ccccc3)cc2)C1
2. CN1CC[C@@H](c2ccc(Cl)cc2)[C@H](C(=O)NCc2ccc(CNC(=O)c3cccc(C(F)(F)F)c3)cc2)C1

output:
> 2000 nM
> 5000 nM
